Target: GATA3-SOX4 interaction (Homo sapiens, UniProt P23771)
Construct: we synthesized the recombinant full-length GATA3 protein with an N-terminal FLAG tag using the wheat cell-free system
Sequence (P23771 whole entry): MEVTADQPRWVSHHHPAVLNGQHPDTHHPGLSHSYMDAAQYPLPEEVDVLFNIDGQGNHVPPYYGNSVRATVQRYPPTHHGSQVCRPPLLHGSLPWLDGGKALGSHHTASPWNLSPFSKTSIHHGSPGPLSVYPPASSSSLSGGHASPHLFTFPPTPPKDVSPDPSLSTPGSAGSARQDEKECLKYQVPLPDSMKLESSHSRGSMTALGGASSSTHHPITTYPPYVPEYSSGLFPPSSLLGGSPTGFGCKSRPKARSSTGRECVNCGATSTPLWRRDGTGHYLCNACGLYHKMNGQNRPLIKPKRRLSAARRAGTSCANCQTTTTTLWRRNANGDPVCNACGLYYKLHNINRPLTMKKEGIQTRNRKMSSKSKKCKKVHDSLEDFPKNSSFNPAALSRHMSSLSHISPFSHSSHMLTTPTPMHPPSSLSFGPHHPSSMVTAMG
Assay: AlphaScreen binding assay of GATA3 and SOX4
Settings: pyrrothiogatain 0 to 100 µM
measured attribute: IC50

mol_smiles=Cc1ccc(C)n1-c1ccsc1C(=O)O tgt="GATA3-SOX4 interaction (Homo sapiens, UniProt P23771)" value_observed="95.2 µM"
